# Tested on: MDA-MB-231
# Test protocol: Antiproliferative activity against human MDA-MB-231 cells assessed as reduction in cell growth incubated for 72 hrs by MTT assay
# Recorded conditions: MDA-MB-231, 72 h
pIC50: −log10 of the molar value.
Observation type: pIC50

CC(c1ccc2ncccc2c1)n1nnc2ncc(N3CCN(Cc4ccc(C(=O)Nc5ccccc5N)cc4)CC3)nc21 (centres undefined) | 4.81
CC(c1ccc2ncccc2c1)n1nnc2ncc(N3CCN(CCCC(=O)Nc4ccc(F)cc4N)CC3)nc21 (centres undefined) | 4.57
CC(c1ccc2ncccc2c1)n1nnc2ncc(N3CCN(Cc4ccc(CC(=O)Nc5ccccc5N)cc4)CC3)nc21 (centres undefined) | 5.06
C[C@@H](Oc1cc(-c2cnn(C3CCNCC3)c2)cnc1N)c1c(Cl)ccc(F)c1Cl [CRIZOTINIB] | 5.31

###

# System: MDA-MB-231
# Test protocol: Antiproliferative activity against human MDA-MB-231 cells assessed as reduction in cell growth incubated for 72 hrs by MTT assay
# Recorded conditions: MDA-MB-231, 72 h
Observation type: IC50 (µM)

CC(c1ccc2ncccc2c1)n1nnc2ncc(N3CCN(CCC(=O)Nc4ccccc4N)CC3)nc21 (centres undefined) | 30.4
CC(c1ccc2ncccc2c1)n1nnc2ncc(N3CCN(CCCC(=O)Nc4ccccc4N)CC3)nc21 (centres undefined) | 22.8
CC(c1ccc2ncccc2c1)n1nnc2ncc(N3CCN(Cc4ccc(/C=C/C(=O)Nc5ccccc5N)cc4)CC3)nc21 (centres undefined) | 3.57
CC(c1ccc2ncccc2c1)n1nnc2ncc(N3CCN(CCC(=O)Nc4ccc(F)cc4N)CC3)nc21 (centres undefined) | 22.7

###

pIC50: −log10 of the molar value.
// Hepatocyte growth factor receptor (Homo sapiens) pIC50 records
Observation type: pIC50

CC(c1ccc2ncccc2c1)n1nnc2ncc(N3CCN(Cc4ccc(/C=C/C(=O)Nc5ccc(F)cc5N)cc4)CC3)nc21 (configuration not stated) | 7.26
CC(c1ccc2ncccc2c1)n1nnc2ncc(N3CCN(Cc4ccc(/C=C/C(=O)Nc5ccccc5N)cc4)CC3)nc21 (configuration not stated) | 7.54

###

# Test protocol: Cytotoxicity against human MCF-10A cells assessed as reduction in cell viability incubated for 72 hrs by MTT assay
# Format: toxicity, cell-based
Observation type: IC50 at 72 h

CC(c1ccc2ncccc2c1)n1nnc2ncc(N3CCN(Cc4ccc(/C=C/C(=O)Nc5ccc(F)cc5N)cc4)CC3)nc21 (configuration not stated) | > 25 µM
CC(c1ccc2ncccc2c1)n1nnc2ncc(N3CCN(Cc4ccc(/C=C/C(=O)Nc5ccccc5N)cc4)CC3)nc21 (configuration not stated) | > 25 µM

###

# System: MDA-MB-453
# Test protocol: Antiproliferative activity against human MDA-MB-453 cells assessed as reduction in cell growth incubated for 72 hrs by MTT assay
# Recorded conditions: MDA-MB-453, 72 h
pIC50: −log10 of the molar value.
Observation type: pIC50

CC(c1ccc2ncccc2c1)n1nnc2ncc(N3CCN(Cc4ccc(/C=C/C(=O)Nc5ccccc5N)cc4)CC3)nc21 (centres undefined) | 5.26
CC(c1ccc2ncccc2c1)n1nnc2ncc(N3CCN(Cc4ccc(CC(=O)Nc5ccccc5N)cc4)CC3)nc21 (centres undefined) | 5.05
CC(c1ccc2ncccc2c1)n1nnc2ncc(N3CCN(Cc4ccc(C(=O)Nc5ccc(F)cc5N)cc4)CC3)nc21 (centres undefined) | 5.20
CC(c1ccc2ncccc2c1)n1nnc2ncc(N3CCN(CCCC(=O)Nc4ccc(F)cc4N)CC3)nc21 (centres undefined) | 4.51
CC(c1ccc2ncccc2c1)n1nnc2ncc(N3CCN(CCCC(=O)Nc4ccccc4N)CC3)nc21 (centres undefined) | 4.64
CC(c1ccc2ncccc2c1)n1nnc2ncc(N3CCN(CC(=O)Nc4ccc(F)cc4N)CC3)nc21 (centres undefined) | 4.66
CC(c1ccc2ncccc2c1)n1nnc2ncc(N3CCN(Cc4ccc(CC(=O)Nc5ccc(F)cc5N)cc4)CC3)nc21 (centres undefined) | 5.23
CC(c1ccc2ncccc2c1)n1nnc2ncc(N3CCN(CCC(=O)Nc4ccc(F)cc4N)CC3)nc21 (centres undefined) | 4.56
CC(c1ccc2ncccc2c1)n1nnc2ncc(N3CCN(Cc4ccc(/C=C/C(=O)Nc5ccc(F)cc5N)cc4)CC3)nc21 (centres undefined) | 5.41
CC(c1ccc2ncccc2c1)n1nnc2ncc(N3CCN(Cc4ccc(C(=O)Nc5ccccc5N)cc4)CC3)nc21 (centres undefined) | 4.80
CC(c1ccc2ncccc2c1)n1nnc2ncc(N3CCN(CC(=O)Nc4ccccc4N)CC3)nc21 (centres undefined) | 4.56
Nc1cc(F)ccc1NC(=O)c1ccc(CNC(=O)/C=C/c2cccnc2)cc1 | 6.20
CC(c1ccc2ncccc2c1)n1nnc2ncc(N3CCN(CCC(=O)Nc4ccccc4N)CC3)nc21 (centres undefined) | 4.51
C[C@@H](Oc1cc(-c2cnn(C3CCNCC3)c2)cnc1N)c1c(Cl)ccc(F)c1Cl | 5.33
